Tested on: PAF-induced aggregation in washed rabbit platelets (WRPs)
procedure.summary: Inhibition of PAF-induced aggregation in washed rabbit platelets
Format: cell-based
test.parameters: washed rabbit platelets; mean ± SD; read-out: IC50 (μM) towards PAF in WRPs
We begin with a simple list: items and their reported log10 IC50.
# log10 transformed; quantity=IC50; unit=µM

Known log10 IC50 results, listed for orientation:
Record [Cl][Ni][Cl] [NiCl2 × 6H2O, reference compound] . Reported log10 IC50: 1.48

Record [Cl][Cu][Cl] [CuCl2 × 2H2O, reference compound] . Reported log10 IC50: 1.34

Record [Cl][Fe][Cl] [FeCl2 × 4H2O, reference compound] . Reported log10 IC50: 2.42

Record [Cl-].[Cl-].[Zn+2] [ZnCl2, reference compound] . Reported log10 IC50: 1.48

Record CS(C)=O.[Cl][Cu][Cl].c1ccc(-c2cnc3ccccc3n2)nc1 [Complex 3, [Cu(pqx)Cl2(DMSO)]] . Reported log10 IC50: 1.03

Next:
Record [Cl][Cr]([Cl])[Cl] [CrCl3 × 6H2O, reference compound] . Reported log10 IC50: 2.73

Record [Cl][Mn][Cl] [MnCl2 × 4H2O, reference compound] . Reported log10 IC50: 2.48

Record [Cl][Zn][Cl].c1ccc(-c2cnc3ccccc3n2)nc1 [Complex 4, [Zn(pqx)Cl2]] . Reported log10 IC50: 0.52
